Where these numbers come from: patent US9132118B2

assay: S-(1) rat oral bioavailability, formulations evaluated in vivo; details: in vivo, using a cremophor-free formulation as reference, read-out: effective F (real bioavailability)
measured_property: bioavailability

**Query** Entry under review: C=C[C@H]1O[C@H]2CC3OC[C@@]3(OC(C)=O)[C@H]3[C@H](OC(=O)c4ccccc4)[C@]4(C(C)(C)O)C[C@H](OC(=O)[C@H](O)[C@H](CC(C)C)NC(=O)OC(C)(C)C)C(C)=C4[C@H](OC(C)=O)[C@H](O1)[C@]23C (stereo partly shown) . Reported bioavailability?
**Result** 60 to 70%

###

experiment: S-(1) Injection mouse PK parameters, IV and oral; assay type: in vivo; conditions: Oral 10 mg/kg
measured_property: Cmax
# output: number + unit

**Query** Entry under review: C=C[C@H]1O[C@H]2CC3OC[C@@]3(OC(C)=O)[C@H]3[C@H](OC(=O)c4ccccc4)[C@]4(C(C)(C)O)C[C@H](OC(=O)[C@H](O)[C@H](CC(C)C)NC(=O)OC(C)(C)C)C(C)=C4[C@H](OC(C)=O)[C@H](O1)[C@]23C (stereo partly shown) . Reported Cmax?
**Result** 0.46 µM

###

assay: S-(1) Injection mouse PK parameters, IV and oral; assay type: in vivo; conditions: in vivo, Oral 10 mg/kg
measured_property: Tmax (h)
Report the figure in h without appending any unit label.

**Query** Entry under review: C=C[C@H]1O[C@H]2CC3OC[C@@]3(OC(C)=O)[C@H]3[C@H](OC(=O)c4ccccc4)[C@]4(C(C)(C)O)C[C@H](OC(=O)[C@H](O)[C@H](CC(C)C)NC(=O)OC(C)(C)C)C(C)=C4[C@H](OC(C)=O)[C@H](O1)[C@]23C (stereo partly shown) . Reported Tmax?
**Result** 6

###

experiment: Phase 1 Study S-(1)-02, i.v. every 21 days, safety and pharmacokinetics; format: in vivo, patients; details: human, plasma, intravenous; Study S-(1)-02, after first dose; read-out: Plasma t1/2, range over dose groups
measured_property: half-life

**Query** Entry under review: C=C[C@H]1O[C@H]2CC3OC[C@@]3(OC(C)=O)[C@H]3[C@H](OC(=O)c4ccccc4)[C@]4(C(C)(C)O)C[C@H](OC(=O)[C@H](O)[C@H](CC(C)C)NC(=O)OC(C)(C)C)C(C)=C4[C@H](OC(C)=O)[C@H](O1)[C@]23C (stereo partly shown) . Reported half-life?
**Result** 3.43 to 8.96 h

###

assay: Efficacy of oral or iv S-(1) in mouse xenografts; format: in vivo, nude mice; details: mouse, in vivo, po; nude mice; from efficacy studies and MTD studies; read-out: apparent oral bioavailability
measured_property: bioavailability

**Query** Entry under review: C=C[C@H]1O[C@H]2CC3OC[C@@]3(OC(C)=O)[C@H]3[C@H](OC(=O)c4ccccc4)[C@]4(C(C)(C)O)C[C@H](OC(=O)[C@H](O)[C@H](CC(C)C)NC(=O)OC(C)(C)C)C(C)=C4[C@H](OC(C)=O)[C@H](O1)[C@]23C (stereo partly shown) . Reported bioavailability?
**Result** 70 to 80%
